Here the recorded viability, T/C is given for each entry.
test system: 126254-015-R-J1-PDC complex spheroid growth, % test/control; test: Anticancer human tumor 126254-015-R-J1-PDC patient-derived soft tissue sarcoma cell line growth inhibition [Asc]; conditions: second compound 0.3 µM; first compound 0.316 µM; active compounds read low;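 further: spheroids exposed to compound for seven days; 100% = DMSO vehicle control wells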
Write it as a number; the unit % goes unstated.

// known answers, use as guide
Ask: Can you look up the measured viability, T/C of O=C(c1ccc(F)c(F)c1Nc1ccc(I)cc1F)N1CC(O)([C@@H]2CCCCN2)C1 + CCN1C(C(=O)NC23CCC(C(=O)O)(CC2)CC3)C(c2cccc(Cl)c2F)C2(C(=O)Nc3cc(Cl)ccc32)C12CCCCC2 for me?
Reply: 68.8

Ask: Reported viability, T/C for C=C(F)C(=O)N1CCN(c2nc(OCC3CCCN3C)nc3c2CCN(c2cccc4cccc(Cl)c24)C3)CC1CC#N (centres undefined) + CCN1C(C(=O)NC23CCC(C(=O)O)(CC2)CC3)C(c2cccc(Cl)c2F)C2(C(=O)Nc3cc(Cl)ccc32)C12CCCCC2 : what is it?
Reply: 97.4

Ask: Returns the measured viability, T/C for the input compound. Input: O=C(c1cc(Cc2n[nH]c(=O)c3ccccc23)ccc1F)N1CCN(C(=O)C2CC2)CC1 + CCN1C(C(=O)NC23CCC(C(=O)O)(CC2)CC3)C(c2cccc(Cl)c2F)C2(C(=O)Nc3cc(Cl)ccc32)C12CCCCC2
Reply: 92.2

Next compound, viability, T/C to be filled in.
Ask: Given CNC(C)C(=O)NC1CN(S(=O)(=O)c2cccc(S(=O)(=O)N3CCC4CCC(C(=O)NC(c5ccccc5)c5ccccc5)N4C(=O)C(NC(=O)C(C)NC)C3)c2)CCC2CCC(C(=O)NC(c3ccccc3)c3ccccc3)N2C1=O (centres undefined) + CCN1C(C(=O)NC23CCC(C(=O)O)(CC2)CC3)C(c2cccc(Cl)c2F)C2(C(=O)Nc3cc(Cl)ccc32)C12CCCCC2 , state its recorded viability, T/C.
Reply: 62

Data origin: PubChem BioAssay AID1963429
